- test.summary: Clearance in Sprague-Dawley rat at 5 mg/kg, iv measured up to 24 hrs by HPLC method
- Assay type: ADME, organism-based
- cond: in vivo
property.label: clearance (mL/min/kg)
Write down the numeric answer in mL/min/kg and omit the unit.

Which value of clearance has been reported for Cc1cc(NC(=O)Nc2cc(C(C)(C)C)nn2-c2ccc(Cl)cc2)ccc1Nc1ncnc2c1OC(C)(C)C(=O)N2 in the records?
4.89

###

- test.system: BDNF/NT-3 growth factors receptor (Homo sapiens)
- Sequence (Q16620 whole entry): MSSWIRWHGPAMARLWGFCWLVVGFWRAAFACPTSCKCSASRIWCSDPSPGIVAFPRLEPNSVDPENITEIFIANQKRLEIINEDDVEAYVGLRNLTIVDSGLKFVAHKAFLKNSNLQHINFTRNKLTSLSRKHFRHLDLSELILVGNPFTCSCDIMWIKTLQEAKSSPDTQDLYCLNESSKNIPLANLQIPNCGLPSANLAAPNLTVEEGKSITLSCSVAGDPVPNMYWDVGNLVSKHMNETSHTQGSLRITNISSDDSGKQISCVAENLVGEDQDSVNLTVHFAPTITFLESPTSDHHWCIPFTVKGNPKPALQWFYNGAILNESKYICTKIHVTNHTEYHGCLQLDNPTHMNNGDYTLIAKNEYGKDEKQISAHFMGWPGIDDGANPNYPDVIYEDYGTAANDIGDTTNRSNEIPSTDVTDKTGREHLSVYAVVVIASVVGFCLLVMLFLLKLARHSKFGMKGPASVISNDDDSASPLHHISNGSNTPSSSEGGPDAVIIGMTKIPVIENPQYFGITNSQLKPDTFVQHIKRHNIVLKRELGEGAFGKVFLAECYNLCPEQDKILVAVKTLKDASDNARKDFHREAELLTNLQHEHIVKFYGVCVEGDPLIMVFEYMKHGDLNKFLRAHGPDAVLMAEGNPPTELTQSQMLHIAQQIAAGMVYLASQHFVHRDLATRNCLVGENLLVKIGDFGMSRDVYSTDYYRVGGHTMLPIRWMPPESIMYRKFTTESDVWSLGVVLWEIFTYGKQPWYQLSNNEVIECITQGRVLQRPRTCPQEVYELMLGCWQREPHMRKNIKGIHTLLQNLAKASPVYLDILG
property.label: pIC50
Please report pIC50 as the negative decimal logarithm of the molar concentration, giving only the number.

State its pIC50 on BDNF/NT-3 growth factors receptor (Homo sapiens): Cc1cc(Nc2ncnc3c2OC(C)(C)C(=O)N3)ccc1NC(=O)Nc1cc(C(C)(C)C)nn1-c1ccccc1
7.06

Please do the same for CC1(C)Oc2c(ncnc2Nc2ccc(NC(=O)Nc3cc(C(C)(C)C)no3)cc2)NC1=O as well.
7.32

Please do the same for Cc1cc(NC(=O)Nc2cc(C(C)(C)C)nn2-c2c(F)c(F)c(F)c(F)c2F)ccc1Nc1ncnc2c1OC(C)(C)C(=O)N2 as well.
7.38

Please do the same for Cc1cc(NC(=O)Nc2cc(C(C)(C)C)nn2-c2ccc(OC(F)(F)F)cc2)ccc1Nc1ncnc2c1OC(C)(C)C(=O)N2 as well.
7.40

Please do the same for Cc1cc(NC(=O)Nc2cc(C(C)(C)C)nn2-c2ccc(F)cc2)ccc1Nc1ncnc2c1OC(C)(C)C(=O)N2 as well.
7.92

Please do the same for CC1(C)Oc2c(ncnc2Nc2ccc(NC(=O)Nc3cccc(C(F)(F)F)c3)cc2)NC1=O as well.
7.77

Please do the same for Cc1cc(NC(=O)Nc2cc(C(C)(C)C)nn2-c2ccc3ccccc3c2)ccc1Nc1ncnc2c1OC(C)(C)C(=O)N2 as well.
6.61

Please do the same for CC1(C)Oc2c(ncnc2Nc2ccc(NC(=O)Nc3cc(C(C)(C)C)nn3C(C)(C)C)cc2)NC1=O as well.
5.85

Please do the same for COc1cc(NC(=O)Nc2cc(C(C)(C)C)nn2-c2ccccc2)ccc1Nc1ncnc2c1OC(C)(C)C(=O)N2 as well.
6.91

Please do the same for Cc1cc(NC(=O)Nc2cc(-c3ccccc3)nn2-c2ccccc2)ccc1Nc1ncnc2c1OC(C)(C)C(=O)N2 as well.
6.77

Please do the same for Cc1cc(NC(=O)Nc2cc(C(C)(C)C)nn2-c2ccccc2F)ccc1Nc1ncnc2c1OC(C)(C)C(=O)N2 as well.
7.82

Please do the same for CSc1cc(Nc2ncnc3c2OC(C)(C)C(=O)N3)ccc1NC(=O)Nc1cc(C(C)(C)C)nn1-c1ccccc1 as well.
6.97

Please do the same for CC1(C)Oc2c(ncnc2Nc2ccc(NC(=O)Nc3cc(C(C)(C)C)nn3-c3ccccc3)c3ccccc23)NC1=O as well.
7.06
